Target: T1, 4H754-bA
T1 chain: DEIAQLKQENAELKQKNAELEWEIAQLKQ
Assay: two-hybrid library CCNG1;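 further: natural log of median RNA to DNA barcode read ratio; higher means stronger binding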
Would you mind telling me the reported interaction score of each entry?
Numbers only.

>  <Binder>
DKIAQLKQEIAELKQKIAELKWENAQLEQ [4H2667-bA]

>  <interaction score>
-1.06

$$$$
>  <Binder>
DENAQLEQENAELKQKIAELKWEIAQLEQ [4H1257-bA]

>  <interaction score>
-1.15

$$$$
>  <Binder>
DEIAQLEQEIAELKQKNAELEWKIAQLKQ [4H118-bA]

>  <interaction score>
-1.04

$$$$
>  <Binder>
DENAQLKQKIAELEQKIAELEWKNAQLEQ [4H1831-bA]

>  <interaction score>
-0.649

$$$$
>  <Binder>
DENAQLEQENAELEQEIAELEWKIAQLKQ [4H1158-bA]

>  <interaction score>
-0.283

$$$$

Now turn to the next binder.
Give the reported interaction score for this binder. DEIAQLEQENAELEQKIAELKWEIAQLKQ [4H170-bA] -0.923
